Test system: chronic motor tic disorder
Experiment: Case report: effect on tics in a child with chronic motor tic disorder
Type: in vivo, human
Conditions: single patient, before taking the leaf extract
readout-name: effect of earlier anti-tic medications on the involuntary movements of the patient

Some compounds with recorded effect of earlier anti-tic medications on the involuntary movements of the patient:
compound: Cc1nc2n(c(=O)c1CCN1CCC(c3noc4cc(F)ccc34)CC1)CCCC2
result: in vain
--
compound: CCN1CCCC1CNC(=O)c1cc(S(N)(=O)=O)ccc1OC (stereo not drawn) [sulpiride]
result: without success
--
compound: CCCN1C[C@H](CSC)C[C@@H]2c3cccc4[nH]cc(c34)C[C@H]21 [pergolide]
result: without success
--
compound: O=C(CCCN1CCC(O)(c2ccc(Cl)cc2)CC1)c1ccc(F)cc1
result: in vain

## Task // returns reported effect of earlier anti-tic medications on the involuntary movements of the patient for input Clc1cccc(Cl)c1N=C1NCCN1
## Result without success

## Task // returns reported effect of earlier anti-tic medications on the involuntary movements of the patient for input CN1C(=O)CN=C(c2ccccc2)c2cc(Cl)ccc21
## Result in vain
